system: EKVX; test: NCI tumour cell line growth inhibition, 48 h
Active and inactive are the calls of the source. No stated cut-off is given here; in the data, active = GI50 up to about 1.1 µM and inactive = higher.
Please go through the items and note down their GI50.

Worked examples, 4 molecules total:
Molecule	GI50
COc1cc(C)cc(C(=O)/C=C/c2ccccc2)c1O	19.4 µM (inactive)
COc1cc2c(cc1O)CC1c3c(cc(O)c(OC)c3-2)CCN1C (stereo not given)	> 100 µM (inactive)
S=C(/N=c1\sc(Nc2ccc(Cl)cc2)nc2sc3c(c12)CCN(N1CCc2c(sc4nc(Nc5ccc(Cl)cc5)s/c(=N\C(=S)Nc5ccc(Cl)cc5)c24)C1)C3)Nc1ccc(Cl)cc1	61.7 µM (inactive)
O=C(CCc1ccccc1)On1nnc2ccccc2c1=O	> 100 µM (inactive)

Now consider the entry below.
Problem: Recorded GI50 of O=C(O)c1oc(C(=O)O)c(C(=O)O)c1C(=O)O , please.
Result: > 100 µM (inactive)

====

test system: HCT-116; experiment: NCI tumour cell line growth inhibition, 48 h
Activity calls are given as the source filed them. Cut-off read from the data, not from the text of the source: active = GI50 up to about 1.1 µM and inactive = higher.
Output constraint: value belongs to yes for active, no for inactive

Problem: Could you kindly confirm the outcome this assay logged for C=C(NC(=O)C(=C)NC(=O)c1ccc2c(n1)-c1coc(n1)C(=C)NC(=O)C(=C)NC(=O)c1nc(oc1C)C(=C)NC(=O)C(C(C)(C)O)NC(=O)C(=C)NC(=O)c1coc(n1)/C(=C/C)NC(=O)[C@H]([C@@H](C)O)NC(=O)c1csc-2n1)C(N)=O (stereo partly drawn) ?
Result: no

Problem: Could you kindly confirm the outcome this assay logged for CN(C)CC1CCCC1=O (stereo not drawn) ?
Result: yes

Problem: // return assay outcome for Cc1ccc2nc(NC(=O)C(=O)C(C#N)c3ccc(Cl)cc3)sc2c1 (stereo not drawn)
Result: no

Problem: Answer briefly: the call reported for COc1ccc(C(OCC2OC(n3cc(C)c(=O)[nH]c3=O)CC2n2cc(Cn3cc(F)c(=O)[nH]c3=O)nn2)(c2ccccc2)c2ccccc2)cc1 (stereo not drawn) in this assay.
Result: no

Problem: What did the test return for COc1ccc(/N=C\c2cc(OC)c(OC)c(OC)c2)cc1 ?
Result: no

Problem: Assay result, entry COC(=O)/C1=C/C=C\C[C@@]2(C)CC(c3ccoc3)OC(=O)[C@@H]2CC[C@H]1C (stereo partly drawn) — outcome?
Result: no

Problem: Tell me the recorded outcome of this test for C=C1COC(/C=C(\C)CC/C=C(\C)CCl)C1 (stereo not drawn) .
Result: no

Problem: Which outcome was assigned to O=C1N(C2CCCCC2)CC12CCCCC2 in this test?
Result: no

Problem: Identify the outcome logged in this assay for the compound shown: CCOC(=O)C(NC(=O)NCc1ccc(F)cc1)C(F)(F)F (stereo not drawn)
Result: no

Problem: Could you check what this test reported for C=C1C(=O)O[C@@H]2C[C@@]3(C)[C@H](O)CCC(=C)[C@@H]3C[C@H]12 [ASPERILIN] ?
Result: no

Problem: Can you look up the reported call for CCOC(=O)C(=O)C=P(c1ccccc1)(c1ccccc1)c1ccccc1 for me?
Result: no

====

tested on: Malme-3M; assay: NCI tumour cell line growth inhibition, 48 h
Activity calls are given as the source filed them. Rule as the data show it: active = GI50 up to about 1.1 µM and inactive = higher.
Reported Metric: GI50

Molecule	Recorded Result
C#CCN(Cc1ccc2nc(-c3ccccc3)c(Cl)nc2c1)c1cc(OC)c(OC)c(OC)c1	> 100 µM (inactive)

I have 3 molecules here; please give me GI50 for each one.
1. Cc1ccc([N+](=O)[O-])c2c(NCCC[N+](C)(C)[O-])ccnc12
2. O=C(O)CNS(=O)(=O)c1ccc(NC(=O)c2ccc(F)cc2)cc1
3. CCCCCCCCCCC(O)CCCCCCC(=O)O (stereo not given)

Result:
["44 µM (inactive)", "> 100 µM (inactive)", "26.2 µM (inactive)"]
